Ref: patent US9340577B2

target: HLA-A*0201 (HLA-A2.1) (Homo sapiens, UniProt P04439, D140Y/D185E/D98H/E176V/E277Q/G131W/G231S/I119V/I121R/I166T/I218V/L300P/L318F/N151K/N90K/P208A/P217A/Q86G/Q94H/R138H/R169H/T345S); assay: biochemical
measure: IC50

INSERT INTO results (molecule, measure, result) VALUES
  ('CC(C)[C@H](NC(=O)[C@@H](NC(=O)[C@H](CC(N)=O)NC(=O)[C@H](CCC(N)=O)NC(=O)[C@H](C)NC(=O)[C@H](CCC(=O)O)NC(=O)[C@@H]1CCCN1C(=O)[C@H](CCC(=O)O)NC(=O)[C@H](CS)NC(=O)[C@@H](NC(=O)[C@@H](N)Cc1ccccc1)[C@@H](C)O)[C@@H](C)O)C(=O)O [Peptide 9013.0323]', 'IC50', '336 nM'),
  ('CSCC[C@H](NC(=O)[C@@H](N)CCCNC(=N)N)C(=O)N1CCC[C@H]1C(=O)N[C@@H](CCC(=O)O)C(=O)N[C@@H](C)C(=O)N[C@@H](C)C(=O)N1CCC[C@H]1C(=O)N1CCC[C@H]1C(=O)N[C@H](C(=O)N[C@H](C(=O)O)C(C)C)C(C)C [Peptide 1317.29]', 'IC50', '55 nM'),
  ('CC[C@H](C)[C@H](NC(=O)CNC(=O)[C@@H](NC(=O)[C@@H](NC(=O)[C@H](C)NC(=O)CN)[C@@H](C)O)C(C)C)C(=O)N[C@@H](CCSC)C(=O)N[C@H](C(=O)NCC(=O)N[C@H](C(=O)N[C@H](C(=O)O)C(C)C)C(C)C)[C@@H](C)CC [Peptide 9013.0342]', 'IC50', '> 20000 nM'),
  ('CC[C@H](C)[C@H](N)C(=O)N[C@@H](CCSC)C(=O)N[C@H](C(=O)NCC(=O)N[C@H](C(=O)N[C@@H](CC(C)C)C(=O)N[C@H](C(=O)NCC(=O)N[C@H](C(=O)N[C@@H](C)C(=O)N[C@H](C(=O)O)C(C)C)C(C)C)C(C)C)C(C)C)[C@@H](C)CC [Peptide 9013.0346]', 'IC50', '75 nM'),
  ('CC[C@H](C)[C@H](NC(=O)[C@@H](NC(=O)[C@H](CC(C)C)NC(=O)[C@@H](N)CS)[C@@H](C)O)C(=O)N[C@@H](Cc1c[nH]cn1)C(=O)N[C@@H](Cc1ccc(O)cc1)C(=O)N[C@@H](CC(N)=O)C(=O)N[C@@H](Cc1ccc(O)cc1)C(=O)N[C@H](C(=O)O)C(C)C [Peptide 1323.07]', 'IC50', '270 nM'),
  ('CC(C)C[C@H](NC(=O)[C@@H](N)CCCNC(=N)N)C(=O)N1CCC[C@H]1C(=O)N[C@@H](CCC(=O)O)C(=O)N[C@@H](C)C(=O)N[C@@H](C)C(=O)N1CCC[C@H]1C(=O)N1CCC[C@H]1C(=O)N[C@H](C(=O)N[C@H](C(=O)O)C(C)C)C(C)C [Peptide 1323.17]', 'IC50', '152 nM');
